- TEST_SUMMARY: Inhibition of 6His-tagged Mycobacterium tuberculosis inorganic pyrophosphatase using tetrasodium PPi as substrate after 8 mins by malachite green dye-based colorimetric analysis
EXPERIMENTAL_READOUT: IC50 (µM)
Report only the number, with the unit µM understood.

Some solved cases for reference:
GIVEN_SMILES | IC50, µM
CN(C)c1nc(-c2cccn2-c2ccccc2)nc(N(C)C)n1 | 540
c1ccc(-n2cccc2-c2nc(N3CC3)nc(N3CC3)n2)cc1 | 130

// switching to the query compound
Q: Look up IC50 for this compound: "CCCCN(CCCC)c1nc(-c2cccn2CCc2ccccc2)nc(N2CCCCCC2)n1"
Result: 23

---

- TEST_SUMMARY: Competitive inhibition of bovine epididymis alpha-L-fucosidase
- Parameters: species or system Bos taurus
EXPERIMENTAL_READOUT: Ki (µM)
Report only the number, with the unit µM understood.

Q: Look up Ki for this compound: "O=C(O)[C@H]1CNC[C@@H](O)[C@H](O)[C@H]1O"
Result: 41

---

- TEST_SUMMARY: Competitive inhibition of almond beta-glucosidase
- Set-up: species or system Prunus dulcis
EXPERIMENTAL_READOUT: pKi
The meaning of pKi here: minus log10 of the concentration in molar units.

Q: Look up pKi for this compound: "C[C@@H]1CNC[C@@H](O)[C@H](O)[C@H]1O"
Result: 5.60

// data source = ChEMBL document CHEMBL4382239
